Reference for the values: the supplement of paper PMC10567573

B1: CDS2 (parent)
chain: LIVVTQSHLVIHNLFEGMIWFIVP

- Variants of: B1
- measurement.protocol: protein stability index of a GFP-peptide fusion (GPS, HEK-293T) (PSI 1-6); higher = more stable;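 also: lentivirally expressed fusions sorted by FACS into six bins by GFP to DsRed ratio, PSI derived from sequencing read proportions per bin multiplied by bin number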
- assay.conditions: c terminus: a fixed tail appended
Would you please tag the item t when its protein stability index is 3 or above, and f when it is below?

{"columns": ["mutant.id", "category"],
 "data": [
  ["T5I", "f"],
  ["I11K", "t"],
  ["T5V", "f"],
  ["M18F", "t"],
  ["G17Q", "f"],
  ["V4M", "t"],
  ["I2T", "f"],
  ["V10Q", "t"],
  ["W20K", "f"],
  ["P24F", "f"],
  ["I22T", "t"],
  ["I19W", "t"],
  ["M18K", "f"],
  ["L1D", "t"],
  ["P24M", "f"],
  ["H12L", "t"],
  ["V23F", "t"],
  ["M18C", "t"],
  ["M18R", "f"],
  ["G17M", "t"],
  ["V23N", "f"],
  ["L1T", "t"],
  ["H8N", "t"],
  ["L9K", "t"],
  ["L9A", "f"],
  ["S7L", "t"],
  ["W20D", "f"],
  ["L14V", "f"],
  ["V23L", "t"],
  ["W20Q", "t"],
  ["F15I", "t"],
  ["T5W", "f"],
  ["I11E", "f"],
  ["I19L", "f"],
  ["S7K", "f"],
  ["H8W", "f"],
  ["F15V", "f"],
  ["F15K", "t"],
  ["V4F", "f"],
  ["H8C", "t"]
]}
